- assayExplanation: The drug is tested on Bacteroides fragilis strain: HMW615 for biotransformation. The drug concentrations were measured before and after a 12-h incubation by liquid-chromatography-coupled mass spectrometry (LC–MS)
- setupConditions: 2 µM
reportedEndpoint: Bacterial Biotransformation

Example entries and their recorded answers appear below.
Item: CNC(=C[N+](=O)[O-])NCCSCc1csc(CN(C)C)n1 [NIZATIDINE] | Bacterial Biotransformation: Compound metabolized

Recorded Bacterial Biotransformation (compound CC12CC3CC(C)(C1)CC(N)(C3)C2 [MEMANTINE] ): Compound NOT metabolized

Bacterial Biotransformation measured on C=C[C@H]1CN2CC[C@H]1C[C@H]2[C@H](O)c1ccnc2ccc(OC)cc12.C=C[C@H]1CN2CC[C@H]1C[C@H]2[C@H](O)c1ccnc2ccc(OC)cc12.O.O.O=S(=O)(O)O [QUININE SULFATE] = Compound NOT metabolized

Sample CC(=O)OCC(=O)NCCCOc1cccc(CN2CCCCC2)c1 [ROXATIDINE ACETATE] ; Bacterial Biotransformation observed: Compound metabolized

Lab note: measured Bacterial Biotransformation of O=C1NCC2(CCN(CCc3ccccc3)CC2)O1 [FENSPIRIDE] was Compound metabolized

Continuing:
Entry CC(C)(C)NC(=O)[C@H]1CC[C@H]2[C@@H]3CC[C@H]4NC(=O)C=C[C@]4(C)[C@H]3CC[C@]12C [FINASTERIDE] , Bacterial Biotransformation reported as Compound metabolized

The recorded Bacterial Biotransformation for OCCN1CCN(CCCN2c3ccccc3Sc3ccc(C(F)(F)F)cc32)CC1 [FLUPHENAZINE] is Compound NOT metabolized

Looking up OC(CCN1CCCCC1)(c1ccccc1)C1CC2C=CC1C2 (stereo not drawn) [BIPERIDEN] , I found its Bacterial Biotransformation recorded as Compound NOT metabolized

---

- setupConditions: bacteroides fragilis, 12 h, 2 µM
- Description: The drug is tested on Bacteroides fragilis strain: NCTC 9343 for biotransformation. The drug concentrations were measured before and after a 12-h incubation by liquid-chromatography-coupled mass spectrometry (LC–MS)
reportedEndpoint: Bacterial Biotransformation

The measured Bacterial Biotransformation associated with CC12CC3CC(C)(C1)CC(N)(C3)C2 [MEMANTINE] reads Compound NOT metabolized

Noted for COc1cc(C(=O)NCc2ccc(OCCN(C)C)cc2)cc(OC)c1OC [TRIMETHOBENZAMIDE] : its Bacterial Biotransformation reads Compound NOT metabolized

For reference, reported Bacterial Biotransformation for Nc1ccc(/N=N/c2ccccc2)c(N)n1 [PHENAZOPYRIDINE] stands at Compound metabolized

Reported Bacterial Biotransformation of CCOC(=O)C1=C[C@]2(CC)CCCN3CCc4c(n1c1ccccc41)[C@@H]32 [VINPOCETINE] : Compound NOT metabolized

CC[C@H](C)C(=O)O[C@H]1CCC=C2C=C[C@H](C)[C@H](CC[C@@H]3C[C@@H](O)CC(=O)O3)[C@H]21 [MEVASTATIN] yielded Bacterial Biotransformation of Compound metabolized

---
Recorded result, O=C(O)CCC(=O)O.O=C(O[C@H]1CN2CCC1CC2)N1CCc2ccccc2[C@@H]1c1ccccc1 [SOLIFENACIN SUCCINATE] , Bacterial Biotransformation: Compound NOT metabolized

Item: CC(=O)OCC(=O)[C@@]12N=C(C)O[C@@H]1C[C@H]1[C@@H]3CCC4=CC(=O)C=C[C@]4(C)[C@H]3[C@@H](O)C[C@@]12C [DEFLAZACORT] | Bacterial Biotransformation: Compound metabolized

response.value for CC(C)OC(=O)C(C)(C)Oc1ccc(C(=O)c2ccc(Cl)cc2)cc1 [FENOFIBRATE] (field: Bacterial Biotransformation) = Compound metabolized

---

- setupConditions: bacteroides fragilis, 12 h, 2 µM
- Description: The drug is tested on Bacteroides fragilis strain: 3397 (T10) for biotransformation. The drug concentrations were measured before and after a 12-h incubation by liquid-chromatography-coupled mass spectrometry (LC–MS)
reportedEndpoint: Bacterial Biotransformation

Previously resolved entries follow.
Value of measured Bacterial Biotransformation for the entry OC(c1cc(C(F)(F)F)nc2c(C(F)(F)F)cccc12)C1CCCCN1 (stereo not given) [MEFLOQUINE] : Compound NOT metabolized

Query O=C1NCC2(CCN(CCc3ccccc3)CC2)O1 [FENSPIRIDE] yields Bacterial Biotransformation of Compound metabolized

The reported Bacterial Biotransformation of the molecule CN(C)C(=O)Oc1cccc([N+](C)(C)C)c1.[Br-] [NEOSTIGMINE BROMIDE] was Compound metabolized

// field: Bacterial Biotransformation; key: Br.COc1ccc2c(c1)[C@]13CCCC[C@@H]1[C@H](C2)N(C)CC3.O [DEXTROMETHORPHAN HYDROBROMIDE] ; value = Compound NOT metabolized

The molecule identified as CCc1cccc2c3c([nH]c12)C(CC)(CC(=O)O)OCC3 (stereo not given) [ETODOLAC] registered its Bacterial Biotransformation at Compound NOT metabolized

More entries:
// field: Bacterial Biotransformation; key: CO[C@]12C[C@@H](COC(=O)c3cncc(Br)c3)CN(C)[C@@H]1Cc1cn(C)c3cccc2c13 [NICERGOLINE] ; value = Compound NOT metabolized

Entry c1ccc([C@H]2CN3CCSC3=N2)cc1 [LEVAMISOLE] ; Bacterial Biotransformation = Compound metabolized

For Cc1ccc(-c2nc3ccc(C)cn3c2CC(=O)N(C)C)cc1 [ZOLPIDEM] the molecule record lists Bacterial Biotransformation as Compound NOT metabolized

For reference, reported Bacterial Biotransformation for Nc1nnc(-c2cccc(Cl)c2Cl)c(N)n1 [LAMOTRIGINE] stands at Compound NOT metabolized

Lab book: Bacterial Biotransformation of COCCCC/C(=N\OCCN)c1ccc(C(F)(F)F)cc1.O=C(O)/C=C\C(=O)O [FLUVOXAMINE MALEATE] noted as Compound metabolized

---

- assayExplanation: The drug is tested on Bacteroides cellulosilyticus strain: DSM14838 for biotransformation. The drug concentrations were measured before and after a 12-h incubation by liquid-chromatography-coupled mass spectrometry (LC–MS)
- setupConditions: 2 µM
reportedEndpoint: Bacterial Biotransformation

// worked examples, Bacterial Biotransformation included
Value of Bacterial Biotransformation reported for the compound COc1cc2nc(N3CCN(C(=O)c4ccco4)CC3)nc(N)c2cc1OC [PRAZOSIN] is Compound NOT metabolized

Item: COc1ccc2c3c1O[C@H]1C[C@@H](O)C=C[C@@]31CCN(C)C2 [GALANTAMINE] | Bacterial Biotransformation: Compound NOT metabolized

Sample CN1CCC[C@@H]1CCO[C@](C)(c1ccccc1)c1ccc(Cl)cc1.O=C(O)/C=C/C(=O)O [CLEMASTINE FUMARATE] ; Bacterial Biotransformation observed: Compound metabolized

Form: compound = CC(CN1c2ccccc2Sc2ccccc21)N(C)C (stereo not drawn) [PROMETHAZINE] ; Bacterial Biotransformation = Compound NOT metabolized

get_value(item= COc1ccc2[nH]c([S+]([O-])Cc3ncc(C)c(OC)c3C)nc2c1 (stereo not drawn) [OMEPRAZOLE] , readout=Bacterial Biotransformation) returns Compound metabolized

New cases:
Measured Bacterial Biotransformation, Clc1cccc(Cl)c1N=C1NCCN1 [CLONIDINE] : Compound NOT metabolized

Field Bacterial Biotransformation (entry CC(C)(C)NCC(O)COc1cccc2c1CC(O)C(O)C2 (stereo not drawn) [NADOLOL] ) reads Compound NOT metabolized

Record summary for CCC(COC(=O)c1cc(OC)c(OC)c(OC)c1)(c1ccccc1)N(C)C.O=C(O)/C=C\C(=O)O (stereo not drawn) : reported Bacterial Biotransformation = Compound NOT metabolized

---

- setupConditions: anaerostipes sp., 12 h, 2 µM
- Description: The drug is tested on Anaerostipes sp. strain: fecal isolate for biotransformation. The drug concentrations were measured before and after a 12-h incubation by liquid-chromatography-coupled mass spectrometry (LC–MS)
reportedEndpoint: Bacterial Biotransformation

Check out these entries, answers already filled in.
In plain terms, "Cc1nc(Nc2ncc(C(=O)Nc3c(C)cccc3Cl)s2)cc(N2CCN(CCO)CC2)n1.O" has a documented Bacterial Biotransformation of Compound metabolized

Given item "C#C[C@]1(O)CC[C@H]2[C@@H]3CCC4=CC(=O)CC[C@@H]4[C@H]3CC[C@@]21CC" , the value recorded as its Bacterial Biotransformation is Compound NOT metabolized

Form field Bacterial Biotransformation, entry "CN1[C@@H]2CC[C@H]1C[C@@H](OC(=O)c1c[nH]c3ccccc13)C2" : Compound NOT metabolized

# Bacterial Biotransformation of COC(=O)[C@H](c1ccccc1Cl)N1CCc2sccc2C1.O=S(=O)(O)O [CLOPIDOGREL BISULFATE] = Compound NOT metabolized

compound CN1C(=O)CCS(=O)(=O)C1c1ccc(Cl)cc1 (configuration not stated) , Bacterial Biotransformation observed: Compound NOT metabolized

Okay, now this compound:
Recorded result, Nc1nc(N)nc(-c2cc(Cl)ccc2Cl)n1.O=C(O)/C=C\C(=O)O [IRSOGLADINE MALEATE] , Bacterial Biotransformation: Compound NOT metabolized

---

- assayExplanation: The drug is tested on Bacteroides vulgatus strain: ATCC8482 for biotransformation. The drug concentrations were measured before and after a 12-h incubation by liquid-chromatography-coupled mass spectrometry (LC–MS)
- setupConditions: phocaeicola vulgatus, 2 µM
reportedEndpoint: Bacterial Biotransformation

Entry "O=c1n(CCCN2CCN(c3cccc(Cl)c3)CC2)nc2ccccn12" — recorded Bacterial Biotransformation = Compound NOT metabolized

Item: CC(C)NCC(O)COc1ccc(COCCOC(C)C)cc1.CC(C)NCC(O)COc1ccc(COCCOC(C)C)cc1.O=C(O)/C=C/C(=O)O (stereo not drawn) [BISOPROLOL FUMARATE] | Bacterial Biotransformation: Compound NOT metabolized

Lab book: Bacterial Biotransformation of CCN(CC)CCNC(=O)c1cc(Cl)c(N)cc1OC [METOCLOPRAMIDE] noted as Compound NOT metabolized
